Provide the recorded PHOSPHORUS for the entries that follow.
species on record: Rattus norvegicus; assay: DrugMatrix - Regimen: Daily Repeat; format: toxicity, organism-based, Sprague-Dawley; design: regimen Daily Repeat, gender Male, age 6-8 weeks; conditions: in vivo, po, 0 mg/kg, 72 h, tissue Plasma, route oral GAVAGE, dose level Control, time 3 day, vehicle 100 % WATER
All answers are understood in mg/dL, so give the number only.

Enquiry: Would you mind telling me what PHOSPHORUS value was observed for CNC1=Nc2ccc(Cl)cc2C(c2ccccc2)=[N+]([O-])C1 [CHLORDIAZEPOXIDE] ?
Return: 11.57

Enquiry: Look at this compound and give its reported PHOSPHORUS. CCN(C(C)=O)c1cccc(-c2ccnc3c(C#N)cnn23)c1 [ZALEPLON]
Return: 12.08

Enquiry: Entry O=c1[nH]c(=O)n(C2CCCO2)cc1F (stereo unspecified) [TEGAFUR] : reported PHOSPHORUS = ?
Return: 12.18

Enquiry: Given the entry NC(=O)c1cccnc1 [NIACINAMIDE] , report its measured PHOSPHORUS.
Return: 12.45

Enquiry: I would be grateful if you could share the reported PHOSPHORUS for C#Cc1cccc(Nc2ncnc3cc(OCCOC)c(OCCOC)cc23)c1 [ERLOTINIB] .
Return: 11

Enquiry: What measured PHOSPHORUS goes with NC12CC3CC(CC(C3)C1)C2 [AMANTADINE] ?
Return: 12.08

Enquiry: Which PHOSPHORUS value belongs to CN(C)C(=O)Oc1cccc([N+](C)(C)C)c1.[Br-] [NEOSTIGMINE BROMIDE] ?
Return: 10.78

Enquiry: # query: PHOSPHORUS of entry CCN(CC)CCOC(=O)C1(C2CCCCC2)CCCCC1 [DICYCLOMINE]
Return: 11.42

Enquiry: For the compound CN(C)CCC=C1c2ccccc2CCc2ccccc21 [AMITRIPTYLINE] , what PHOSPHORUS is on record?
Return: 12.08

Enquiry: Could you share which PHOSPHORUS value was measured for CCN(CC)CCNC(=O)c1ccc(N)cc1 [PROCAINAMIDE] ?
Return: 10.2

Enquiry: Bench note: what PHOSPHORUS did CCCC(C)C1(CC)C(=O)NC(=O)NC1=O (stereo unspecified) [PENTOBARBITAL] show?
Return: 10.78

====

species: Rattus norvegicus; type: toxicity, organism-based, Sprague-Dawley; conditions: in vivo, po, 10 mg/kg, 24 h, tissue Blood, route oral GAVAGE, dose level Low, time 1 day, vehicle .5 % CMC
Description: DrugMatrix - Regimen: Single
MEASURED METRIC: ABSOLUTE LYMPHOCYTE (cells/µL)
Field: numeric (cells/µL). Do not append units.

Enquiry: Please look up its ABSOLUTE LYMPHOCYTE: CN(C)CCN(Cc1cccs1)c1ccccn1
Return: 6900

====

species on record: Rattus norvegicus; experiment: DrugMatrix - Regimen: Daily Repeat; type: toxicity, organism-based, Sprague-Dawley; set-up: regimen Daily Repeat, gender Male, age 6-8 weeks; conditions: in vivo, iv, 0 mg/kg, 120 h, tissue Blood, dose level Control, time 5 day, vehicle 100 % SALINE
MEASURED METRIC: HEMOGLOBIN (G/DL)
Entry rule: numbers only, all in G/DL.

Enquiry: State the recorded HEMOGLOBIN for this entry: C[N+](C)(C)CCOC(=O)CCC(=O)OCC[N+](C)(C)C.[Cl-].[Cl-] [SUCCINYLCHOLINE CHLORIDE]
Return: 13.78

Enquiry: Name the recorded HEMOGLOBIN for O=c1[nH]c(=O)n([C@H]2C[C@H](O)[C@@H](CO)O2)cc1F .
Return: 13.73

Enquiry: I have this compound here, O=C(O)P(=O)(O)O , and I need its recorded HEMOGLOBIN.
Return: 13.67

Enquiry: Item N=C(N)c1ccc(OCCCCCOc2ccc(C(=N)N)cc2)cc1 has what recorded HEMOGLOBIN?
Return: 13.78

Enquiry: Please give the measured HEMOGLOBIN for this compound: COc1cccc2c1C(=O)c1c(O)c3c(c(O)c1C2=O)C[C@@](O)(C(C)=O)C[C@@H]3O[C@H]1C[C@H](N)[C@H](O)[C@H](C)O1
Return: 14.4

====

species on record: Rattus norvegicus; test: DrugMatrix - Regimen: Daily Repeat; format: toxicity, organism-based, Sprague-Dawley; parameters: regimen Daily Repeat, gender Male, age 6-8 weeks; details: in vivo, ip, 0.5 mg/kg, […], tissue Blood, route intraperitoneal, dose level High, time 14 day, vehicle 100 % SALINE
MEASURED METRIC: ABSOLUTE EOSINOPHIL (cells/µL)
Report only the number, with the unit cells/µL understood.

Enquiry: What value of ABSOLUTE EOSINOPHIL has been reported for the following sequence? TRANSPLATIN
Return: 76

====

species on record: Rattus norvegicus; test: DrugMatrix - Regimen: Daily Repeat; type: toxicity, organism-based, Sprague-Dawley; design: regimen Daily Repeat, gender Male, age 6-8 weeks; details: in vivo, po, 0 mg/kg, 120 h, tissue Blood, route oral GAVAGE, dose level Control, time 5 day, vehicle .5 % CMC
I'd be grateful if you could share measured HEMATOCRIT for these entries.
Report the figure in % without appending any unit label.

Enquiry: Form field: reported HEMATOCRIT of C[C@@](Cc1ccc(O)c(O)c1)(NN)C(=O)O.O
Return: 35.77

Enquiry: Fill in the blank: the reported HEMATOCRIT of NC(=O)N1c2ccccc2CC(=O)c2ccccc21 [OXCARBAZEPINE] is ____.
Return: 35.28

Enquiry: Would you kindly share the measured HEMATOCRIT for CN1CCN(C2=Nc3cc(Cl)ccc3Nc3ccccc32)CC1 ?
Return: 36.55

Enquiry: Looking for the measured HEMATOCRIT of C[C@@H]1O[C@@H](O[C@H]2C[C@@H](O)[C@]3(CO)[C@H]4[C@H](O)C[C@]5(C)[C@@H](C6=CC(=O)OC6)CC[C@]5(O)[C@@H]4CC[C@]3(O)C2)[C@H](O)[C@H](O)[C@H]1O , can you help?
Return: 35.8

Enquiry: Which value of HEMATOCRIT has been reported for C[C@]12CC[C@@H]3c4ccc(O)cc4CC[C@H]3[C@@H]1C[C@@H](O)[C@@H]2O in the records?
Return: 33.98

Enquiry: Return reported HEMATOCRIT; argument: CCC1=C(C)CN(C(=O)NCCc2ccc(S(=O)(=O)NC(=O)N[C@H]3CC[C@H](C)CC3)cc2)C1=O [GLIMEPIRIDE]
Return: 33.8

Enquiry: HEMATOCRIT lookup needed for CN(C)CCN(Cc1cccs1)c1ccccn1 , thanks.
Return: 46.95

Enquiry: If you can, please state the reported HEMATOCRIT value of CCCCC1=NC2(CCCC2)C(=O)N1Cc1ccc(-c2ccccc2-c2nnn[nH]2)cc1 .
Return: 43.12

====

species on record: Rattus norvegicus; experiment: DrugMatrix - Regimen: Daily Repeat; format: toxicity, organism-based, Sprague-Dawley; design: regimen Daily Repeat, gender Male, age 6-8 weeks; conditions: in vivo, iv, 0 mg/kg, 72 h, tissue Blood, dose level Control, time 3 day, vehicle 100 % SALINE
MEASURED METRIC: MEAN CORPUSCULAR HEMOGLOBIN (pg)
The answer is to be given in pg; state only the numeric part.

Enquiry: // lookup MEAN CORPUSCULAR HEMOGLOBIN for C[N+](C)(C)CCOC(=O)CCC(=O)OCC[N+](C)(C)C.[Cl-].[Cl-] [SUCCINYLCHOLINE CHLORIDE]
Return: 23.8

Enquiry: GET /values?readout=MEAN CORPUSCULAR HEMOGLOBIN&item= O=c1[nH]c(=O)n([C@H]2C[C@H](O)[C@@H](CO)O2)cc1F
Return: 24.87

Enquiry: Sample COc1cccc2c1C(=O)c1c(O)c3c(c(O)c1C2=O)C[C@@](O)(C(C)=O)C[C@@H]3O[C@H]1C[C@H](N)[C@H](O)[C@H](C)O1 — what was its MEAN CORPUSCULAR HEMOGLOBIN?
Return: 25.68

Enquiry: Which MEAN CORPUSCULAR HEMOGLOBIN is listed for O=C(O)P(=O)(O)O ?
Return: 23.17

Enquiry: Item N=C(N)c1ccc(OCCCCCOc2ccc(C(=N)N)cc2)cc1 has what recorded MEAN CORPUSCULAR HEMOGLOBIN?
Return: 23.8

====

Hi there, I'd appreciate the recorded CREATINE PHOSPHOKINASE for every entry that follows.
species on record: Rattus norvegicus; experiment: DrugMatrix - Regimen: Daily Repeat; format: toxicity, organism-based, Sprague-Dawley; set-up: regimen Daily Repeat, gender Male, age 6-8 weeks; settings: in vivo, po, 0 mg/kg, 120 h, tissue Plasma, route oral GAVAGE, dose level Control, time 5 day, vehicle 100 % WATER
Number in u/L, nothing else.

Enquiry: Form field: reported CREATINE PHOSPHOKINASE of CCN(CC)CCOC(=O)C1(C2CCCCC2)CCCCC1
Return: 130.67

Enquiry: # lookup: CREATINE PHOSPHOKINASE of CN(C)CCC=C1c2ccccc2CCc2ccccc21
Return: 268.33

Enquiry: What value of CREATINE PHOSPHOKINASE has been recorded for this entry: CCN(CC)CCNC(=O)c1ccc(N)cc1 [PROCAINAMIDE]
Return: 154.83

Enquiry: Fill in the blank: the reported CREATINE PHOSPHOKINASE of CN(C)C(=O)Oc1cccc([N+](C)(C)C)c1.[Br-] [NEOSTIGMINE BROMIDE] is ____.
Return: 237.17

Enquiry: Which CREATINE PHOSPHOKINASE value belongs to CNC1=Nc2ccc(Cl)cc2C(c2ccccc2)=[N+]([O-])C1 [CHLORDIAZEPOXIDE] ?
Return: 441.5

Enquiry: // returns reported CREATINE PHOSPHOKINASE for input O=c1[nH]c(=O)n(C2CCCO2)cc1F (stereo unspecified)
Return: 381.5

Enquiry: What CREATINE PHOSPHOKINASE value was documented for this compound, NC12CC3CC(CC(C3)C1)C2 ?
Return: 268.33

Enquiry: Consider the compound CCCC(C)C1(CC)C(=O)NC(=O)NC1=O (stereo unspecified) and give its measured CREATINE PHOSPHOKINASE.
Return: 237.17

Enquiry: Any idea what CREATINE PHOSPHOKINASE was measured for CCN(C(C)=O)c1cccc(-c2ccnc3c(C#N)cnn23)c1 ?
Return: 268.33

Enquiry: I am curious: what CREATINE PHOSPHOKINASE value has been reported for NC(=O)c1cccnc1 [NIACINAMIDE] ?
Return: 281.83

Enquiry: Field request: CREATINE PHOSPHOKINASE | item: C#Cc1cccc(Nc2ncnc3cc(OCCOC)c(OCCOC)cc23)c1
Return: 383.17

Reference source: ChEMBL document CHEMBL3885881
